Measured values drawn from patent USRE39591E1 for this set.

# Test system: up to 32 different microorganisms
# ASSAY_TEXT: in vitro antibacterial activity (MIC), agar dilution on Brain Heart Infusion (BHI) agar with Steers replicator
# Assay type: cell-based
# EXPERIMENTAL_SETUP: organism code VV; unit assumed
ASSAY_METRIC: MIC
Please make sure the unit comes right after the number.

COMPOUND	ASSAY_METRIC	RESULT
CCC1OC(=O)C(C)C(=O)C(C)C(OC2OC(C)CC(N(C)C)C2O)C(C)(OCC=Cc2cc3nccnc3cc2[N+](=O)[O-])CC(C)C(=O)C(C)C2NC(=O)OC12C (centres unmarked) [Example 200, R is —CH2CH═CH-(7-nitro-6-quinoxalinyl)]	MIC	0.1 µg/mL

Kindly consider the entry below.
State the recorded MIC for this entry: CC[C@H]1OC(=O)[C@H](C)C(=O)[C@H](C)[C@@H](O[C@@H]2O[C@H](C)C[C@H](N(C)C)[C@H]2O)[C@@](C)(OCC2COC(C)(C)O2)C[C@@H](C)C(=O)[C@H](C)[C@H]2NC(=O)O[C@@]21C (some centres unmarked) [Example 259]
3.1 µg/mL

* * *

# Test system: up to 32 different microorganisms
# ASSAY_TEXT: in vitro antibacterial activity (MIC), agar dilution on Brain Heart Infusion (BHI) agar with Steers replicator
# Assay type: cell-based
# EXPERIMENTAL_SETUP: Micrococcus luteus ATCC 9341 (code OO); unit assumed
The compounds listed here are annotated with their log10(MIC).
Please interpret these as log10 of MIC where MIC is in µg/mL.

COMPOUND	log10(MIC)
C=CCOC1(C)CC(C)C(=O)C(C)C2N(CC=C)C(=O)OC2(C)C(CC)OC(=O)C(C)C(=O)C(C)C1OC1OC(C)CC(N(C)C)C1O (stereo not drawn) [Example 183]	0.79
CC[C@H]1OC(=O)[C@H](C)C(=O)[C@H](C)[C@@H](O[C@@H]2O[C@H](C)C[C@H](N(C)C)[C@H]2O)[C@@](C)(OCCNCCc2ccccc2)C[C@@H](C)C(=O)[C@H](C)[C@@H](O)[C@]1(C)O [Example 10]	-0.70
CC[C@H]1OC(=O)[C@H](C)C(=O)[C@H](C)[C@@H](O[C@@H]2O[C@H](C)C[C@H](N(C)C)[C@H]2O)[C@@](C)(OCC=Cc2ccccc2)C[C@@H](C)C(=O)[C@H](C)[C@@H](O)[C@]1(C)O [Example 14]	-0.41
CC[C@H]1OC(=O)[C@H](C)C(=O)[C@H](C)[C@@H](O[C@@H]2O[C@H](C)C[C@H](N(C)C)[C@H]2O)[C@@](C)(OCC=Cc2ccc(F)cc2)C[C@@H](C)C(=O)[C@H](C)[C@@H](O)[C@]1(C)O [Example 174]	-0.41
CCC1OC(=O)C(C)C(=O)C(C)C(OC2OC(C)CC(N(C)C)C2O)C(C)(OCC=Cc2cccc([N+](=O)[O-])c2)CC(C)C(=O)C(C)C2NC(=O)OC12C (stereo not drawn) [Example 193, R is —CH2CH═CH-(3-nitrophenyl)]	-2.00

State the recorded log10(MIC) for this entry: CC[C@H]1OC(=O)[C@H](C)C(=O)[C@H](C)[C@@H](O[C@@H]2O[C@H](C)C[C@H](N(C)C)[C@H]2O)[C@@](C)(OCC=Cc2ccc(Cl)cc2)C[C@@H](C)C(=O)[C@H](C)[C@H]2OC(=O)O[C@@]21C [Example 74]
-1.30

Try this compound too: CC[C@H]1OC(=O)[C@H](C)C(=O)[C@H](C)[C@@H](O[C@@H]2O[C@H](C)C[C@H](N(C)C)[C@H]2O)[C@@](C)(OCC(O)C#N)C[C@@H](C)C(=O)[C@H](C)[C@@H](O)[C@]1(C)O (stereo partly drawn) [Example 175]
-1.30

Try this compound too: CCC1OC(=O)C(C)C(=O)C(C)C(OC2OC(C)CC(N(C)C)C2O)C(C)(OCC=Cc2ccc3ncccc3c2)CC(C)C(=O)C(C)C2NC(=O)OC12C (stereo not drawn) [Example 194, R is —CH2CH═CH-(6-quinolyl)]
-2.00

Try this compound too: CCC1OC(=O)C(C)C(=O)C(C)C(OC2OC(C)CC(N(C)C)C2O)C(C)(OCC=Cc2cnc3ccccc3c2)CC(C)C(=O)C(C)C2N(CC=Cc3cnc4ccccc4c3)C(=O)OC12C (stereo not drawn) [Example 184]
-0.41

Try this compound too: CCC1OC(=O)C(C)C(=O)C(C)C(OC2OC(C)CC(N(C)C)C2O)C(C)(OCC=Cc2ccc3nc(C)ccc3c2)CC(C)C(=O)C(C)C2NC(=O)OC12C (stereo not drawn) [Example 197, R is —CH2CH═CH-(2-methyl-6-quinolyl)]
-1.70

Try this compound too: C=CCOC1(C)CC(C)C(=O)C(C)C(O)C(C)(O)C(CC)OC(=O)C(C)C(=O)C(C)C1OC1OC(C)CC(N(C)C)C1O (stereo not drawn) [Example 1]
0.49

Try this compound too: CC[C@H]1OC(=O)[C@H](C)C(=O)[C@H](C)[C@@H](O[C@@H]2O[C@H](C)C[C@H](N(C)C)[C@H]2O)[C@@](C)(OCC=Cc2ccc(Cl)cc2)C[C@@H](C)C(=O)[C@H](C)[C@@H](O)[C@]1(C)O [Example 17]
-0.41

Try this compound too: CC[C@H]1OC(=O)[C@H](C)C(=O)[C@H](C)[C@@H](O[C@@H]2O[C@H](C)C[C@H](N(C)C)[C@H]2O)[C@@](C)(OCC#N)C[C@@H](C)C(=O)[C@H](C)[C@@H](O)[C@]1(C)O [Example 7]
-0.41

Try this compound too: CCC1OC(=O)C(C)C(=O)C(C)C(OC2OC(C)CC(N(C)C)C2O)C(C)(OCC=Cc2ccc3c(c2)OCO3)CC(C)C(=O)C(C)C2NC(=O)OC12C (stereo not drawn) [Example 188]
-1.70

Try this compound too: CC[C@H]1OC(=O)[C@H](C)C(=O)[C@H](C)[C@@H](O[C@@H]2O[C@H](C)C[C@H](N(C)C)[C@H]2O)[C@@](C)(OCc2ccc3ccccc3c2)C[C@@H](C)C(=O)[C@H](C)[C@H]2NC(=O)O[C@@]21C [Example 176]
-1.30

Try this compound too: CCC1OC(=O)C(C)C(=O)C(C)C(OC2OC(C)CC(N(C)C)C2O)C(C)(OCC=Cc2cncc3ccccc23)CC(C)C(=O)C(C)C2NC(=O)OC12C (stereo not drawn) [Example 187, R is —CH2CH═CH-(4-isoquinolinyl)]
-1.70

* * *

The compounds listed here are annotated with their log10 MIC.
# Tested on: up to 32 different microorganisms
# ASSAY_TEXT: in vitro antibacterial activity (MIC), agar dilution on Brain Heart Infusion (BHI) agar with Steers replicator
# Assay type: cell-based
# EXPERIMENTAL_SETUP: Streptococcus agalactiae CMX 508 (code KK); unit assumed
Please interpret these as log10 of MIC where MIC is in µg/mL.

Below are worked cases with known answers.
COMPOUND	QUANTITATIVE_READOUT
CC[C@H]1OC(=O)[C@H](C)C(=O)[C@H](C)[C@@H](O[C@@H]2O[C@H](C)C[C@H](N(C)C)[C@H]2O)[C@@](C)(OCC=Cc2cnc3ccccc3c2)C[C@@H](C)C(=O)[C@H](C)[C@@H](O)[C@]1(C)O	-0.70
CC[C@H]1OC(=O)[C@H](C)C(=O)[C@H](C)[C@@H](O[C@@H]2O[C@H](C)C[C@H](N(C)C)[C@H]2O)[C@@](C)(OCC=Cc2ccccc2)C[C@@H](C)C(=O)[C@H](C)[C@H]2OC(=O)O[C@@]21C	-2.00
CC[C@H]1OC(=O)[C@H](C)C(=O)[C@H](C)[C@@H](O[C@@H]2O[C@H](C)C[C@H](N(C)C)[C@H]2O)[C@@](C)(OCCCc2ccccc2)C[C@@H](C)C(=O)[C@H](C)[C@@H](O)[C@]1(C)O	-0.70
CCC1OC(=O)C(C)C(=O)C(C)C(OC2OC(C)CC(N(C)C)C2O)C(C)(OCC=Cc2ccc3ncccc3c2)CC(C)C(=O)C(C)C2NC(=O)OC12C (stereo not drawn)	-2.00
CC[C@H]1OC(=O)[C@H](C)C(=O)[C@H](C)[C@@H](O[C@@H]2O[C@H](C)C[C@H](N(C)C)[C@H]2O)[C@@](C)(OCC#N)C[C@@H](C)C(=O)[C@H](C)[C@@H](O)[C@]1(C)O	-0.11
C=CCOC1(C)CC(C)C(=O)C(C)C2N(CC=C)C(=O)OC2(C)C(CC)OC(=O)C(C)C(=O)C(C)C1OC1OC(C)CC(N(C)C)C1O (stereo not drawn)	0.19
CCC1OC(=O)C(C)C(=O)C(C)C(OC2OC(C)CC(N(C)C)C2O)C(C)(OCC=Cc2ccc3ccccc3c2)CC(C)C(=O)C(C)C2NC(=O)OC12C (stereo not drawn)	-2.00

Kindly consider the entry below.
State the recorded log10 MIC for this entry: "CC[C@H]1OC(=O)[C@H](C)C(=O)[C@H](C)[C@@H](O[C@@H]2O[C@H](C)C[C@H](N(C)C)[C@H]2O)[C@@](C)(OCC=Cc2ccccc2)C[C@@H](C)C(=O)[C@H](C)[C@H]2NC(=O)O[C@@]21C"
-1.70
